Data origin, for the record: the supplement of paper PMC11417369

Recorded gcPBM binding intensity (ln) for the following sequences
System: PfAP2-G AP2 domain (GST-tagged)
Test: gcPBM binding intensity (ln(normalized median fluorescence intensity)); higher = stronger DNA binding
In all, about 25,000 sequences were measured (“ln(normalized median fluorescence intensity)”: median about 10, highest 2% from about 12 on). Only a selection was taken, and the highest values are over-represented in it overall.
ASSAY_ENDPOINT: gcPBM binding intensity (ln)

>  <ENTRY_SEQUENCE>
AGTAATAATCGGCATGCATGTCAGTGGTAGTATATA [TGCATGCA_site312]

>  <TARGET_ENTITY>
PfAP2-G AP2 domain (GST-tagged)

>  <OBSERVED_MEASUREMENT>
10.3

$$$$
>  <ENTRY_SEQUENCE>
TAATTTATAAATAATTGTACATAGTTTATTTAGATT [XGTACX_site4599]

>  <TARGET_ENTITY>
PfAP2-G AP2 domain (GST-tagged)

>  <OBSERVED_MEASUREMENT>
10.9

$$$$
>  <ENTRY_SEQUENCE>
ATAAATTGTTCTTTTTGTGTAAACAGAATATTAAAA [CACACA_negctrl_site1022]

>  <TARGET_ENTITY>
PfAP2-G AP2 domain (GST-tagged)

>  <OBSERVED_MEASUREMENT>
10.1

$$$$
>  <ENTRY_SEQUENCE>
CAACACTTATTGAAACGTACGCATATAGTTTCTTTT [XGTACX_site8960]

>  <TARGET_ENTITY>
PfAP2-G AP2 domain (GST-tagged)

>  <OBSERVED_MEASUREMENT>
11

$$$$
>  <ENTRY_SEQUENCE>
TAGTTTTCTTAAAGATGTACTTATTAAAAATAAACT [XGTACX_site1001]

>  <TARGET_ENTITY>
PfAP2-G AP2 domain (GST-tagged)

>  <OBSERVED_MEASUREMENT>
11.3

$$$$
>  <ENTRY_SEQUENCE>
ATATATATTTATAGGTGTACAAAATACTATTTTAGG [XGTACX_site8499]

>  <TARGET_ENTITY>
PfAP2-G AP2 domain (GST-tagged)

>  <OBSERVED_MEASUREMENT>
11.3

$$$$
>  <ENTRY_SEQUENCE>
ACCCATTGCTCACGTGCACACATAGAAAAATAATTC [CACACA_site4389]

>  <TARGET_ENTITY>
PfAP2-G AP2 domain (GST-tagged)

>  <OBSERVED_MEASUREMENT>
10.8

$$$$
>  <ENTRY_SEQUENCE>
GGAAGATGAAAAATAAAGCATGTGCTGTACAAACGA [CACACA_negctrl_site1625]

>  <TARGET_ENTITY>
PfAP2-G AP2 domain (GST-tagged)

>  <OBSERVED_MEASUREMENT>
10.8

$$$$
>  <ENTRY_SEQUENCE>
AGCATAAACAATTTTTGAAAAAATATACACTCATAG [CACACA_negctrl_site890]

>  <TARGET_ENTITY>
PfAP2-G AP2 domain (GST-tagged)

>  <OBSERVED_MEASUREMENT>
9.94

$$$$
